Reported EC50 values follow for various substances
SYSTEM_TESTED: human GcgR (Homo sapiens, UniProt P47871)
Sequence (P47871 26-477): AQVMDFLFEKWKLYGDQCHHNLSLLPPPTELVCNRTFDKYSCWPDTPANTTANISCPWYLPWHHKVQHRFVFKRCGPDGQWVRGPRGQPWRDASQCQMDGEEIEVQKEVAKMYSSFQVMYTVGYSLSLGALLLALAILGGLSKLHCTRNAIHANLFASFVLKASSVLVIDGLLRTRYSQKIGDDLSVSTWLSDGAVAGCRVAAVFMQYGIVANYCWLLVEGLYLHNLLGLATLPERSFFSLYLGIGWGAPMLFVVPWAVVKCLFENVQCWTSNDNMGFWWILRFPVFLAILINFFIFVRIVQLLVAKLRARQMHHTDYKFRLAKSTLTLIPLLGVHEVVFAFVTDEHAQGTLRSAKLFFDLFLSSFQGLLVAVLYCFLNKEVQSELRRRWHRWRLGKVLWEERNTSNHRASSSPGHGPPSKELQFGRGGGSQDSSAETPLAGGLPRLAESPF
ASSAY_TEXT: Functional cAMP activity in the presence of 1% HSA
Type: cell-based
STATED_CONDITIONS: read-out: cAMP Rel EC50, hGcgR
Starred links: 1 amine or outer side, 2 acyl side, 3 side chain; linkers in the order of their positions; H or OH if unused. Non-standard residues stand in square brackets, D forms with d. Groups on a side chain read outwards from the residue. No end group written: not given here. *: point of attachment. C18 diacid = O=C(O)CCCCCCCCCCCCCCCCC(=O)*; αMePhe(2-F) = C[C@](N)(Cc1ccccc1F)C(=O)O; γGlu = O=C(O)[C@H](CCC(=O)[*:2])N[*:1]; αMe4Pal = C[C@](N)(Cc1ccncc1)C(=O)O; αMeY = C[C@](N)(Cc1ccc(O)cc1)C(=O)O; 4Pal = N[C@@H](Cc1ccncc1)C(=O)O; αMeL = CC(C)C[C@](C)(N)C(=O)O; Orn = NCCC[C@H](N)C(=O)O; AEEA = NCCOCCOCC(=O)O; Aib = CC(C)(N)C(=O)O
Use nM as the unit, but write only the number.

SUBSTANCE	UNIT_TAG	EC50
H-Y[Aib]QGTFTSD[4Pal]S[Orn][αMeL]LDKK([AEEA-γGlu-C18 diacid])AQ[αMe4Pal]AFIEYLIE[Aib]GPSSGAPPPSGS-NH2 [Example 808]	nM	286
H-Y[Aib]QGTFTSD[4Pal]SQ[αMeL]LDKK([dE-dE-γGlu-C18 diacid])AQ[αMe4Pal]AFIEYLIE[Aib]GPSSGAPPPSGS-NH2 [Example 921]	nM	2130
H-Y[Aib]QGT[αMePhe(2-F)]TSD[4Pal]SI[αMeL]LD[Orn]K([γGlu-γGlu-C18 diacid])AQ[αMe4Pal][Orn]FI[dE]YLIEGGPSSGEPPPEGT-NH2 [Example 541]	nM	520
H-Y[Aib]QGTFTSDFS[Orn][αMeL]LDKK([AEEA-AEEA-γGlu-C18 diacid])AQ[Aib]AFIEYLLE[dA]GPSSGEPPPSGQ-NH2 [Example 157]	nM	838

Let's switch to this substance now.
Documented EC50 of Y[Aib]Q[dA]T[αMePhe(2-F)]TSD[4Pal]SI[αMeL]LD[Orn]K([AEEA-γGlu-C18 diacid])AQ[αMe4Pal][Orn]FI[dE][αMeY]LIEGGPSSGEPPPESE-NH2 [Example 765] : 111
